Data credit: patent US9617517B2

# Test system: mouse ES cells (Pdx1/GFP)
# RUN DESCRIPTION: Differentiation of mouse ES cells into insulin positive cells on nano fiber plate, immunostaining and quantitative image analysis
# Format: cell-based
# ASSAY SETUP: compound added d11-d17, insulin staining d17 (FIG. 4, 5, 7, 8, 10)
ASSAY ENDPOINT: effect on differentiation into insulin-expressing cells

In [3]: df
Out[3]:
                                   compound           result
0              C[C@](N)(Cc1ccc(O)cc1)C(=O)O  the same effect
1  N[C@@H](Cc1c[nH]c2ccc(O)cc12)C(=O)O [5HTP, 5-hydroxytryptophan]  the same effect
2         C[C@@](Cc1ccc(O)c(O)c1)(NN)C(=O)O  the same effect
